target: T1, CD3 on human T cells (H9 cells, ATCC HTB-176) (human); experiment: flow cytometry on H9 cells, 1 µg antibody per 2x10^5 cells in 100 µl, PE anti-human IgG detection
T1 construct: whole, on cells; The target is printed as 'human T cells'
T1 sequence (P07766 23-207, chain 1 of 3): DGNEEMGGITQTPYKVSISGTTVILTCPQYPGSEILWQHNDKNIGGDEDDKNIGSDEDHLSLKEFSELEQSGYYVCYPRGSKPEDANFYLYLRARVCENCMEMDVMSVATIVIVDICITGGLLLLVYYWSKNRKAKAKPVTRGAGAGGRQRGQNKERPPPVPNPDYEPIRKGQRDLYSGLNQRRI
T1 sequence (P04234 22-171, chain 2 of 3, further chain): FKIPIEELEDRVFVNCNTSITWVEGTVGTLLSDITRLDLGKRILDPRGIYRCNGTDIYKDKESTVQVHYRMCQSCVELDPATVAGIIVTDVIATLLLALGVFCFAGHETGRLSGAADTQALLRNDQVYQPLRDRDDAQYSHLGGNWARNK
T1 sequence (P09693 23-182, chain 3 of 3, further chain): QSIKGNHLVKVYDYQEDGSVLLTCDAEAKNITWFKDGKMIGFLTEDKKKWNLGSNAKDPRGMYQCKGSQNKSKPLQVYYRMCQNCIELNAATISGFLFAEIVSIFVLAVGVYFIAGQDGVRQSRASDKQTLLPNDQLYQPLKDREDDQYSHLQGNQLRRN
# reported Mean : PE-A; entries follow
// print number alone

[[record]]
binder = "A16 (antibody, human IgG1, lambda, L234A L235A, V domains shown, humanized SP34 IgG1, lambda) VH: EVQLVESGGGLVQPGGSLKLSCAASGFTFNTYAMNWVRQASGKGLEWVGRIRSKYNNYATYYADSVKDRFTISRDDSKNTAYLQMNSLKTEDTAVYYCVRHGNFGNSYVSWFAYWGQGTLVTVSS VL: QAVVTQEPSLTVSPGGTVTLTCRSSTGAVTTSNYANWVQQKPGQAPRGLIGGTNKRAPWTPARFSGSLLGDKAALTLSGAQPEDEAEYYCALWYSNLWVFGGGTKLTVLG"
measured = 16700

[[record]]
binder = "A15 (antibody, human IgG1, lambda, L234A L235A, V domains shown, humanized SP34 IgG1, lambda) VH: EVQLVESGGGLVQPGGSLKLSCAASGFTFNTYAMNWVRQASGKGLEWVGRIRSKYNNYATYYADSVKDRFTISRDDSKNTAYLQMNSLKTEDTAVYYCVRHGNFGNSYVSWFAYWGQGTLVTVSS VL: QAVVTQEPSLTVSPGGTVTLTCRSSTGAVTTSNYANWVQQKPGQAPRGLIGGTNKRAPWTPARFSGSLLGGKAALTLSGAQPEDEAEYYCALWYSNLWVFGGGTKLTVLG"
measured = 24000


Attention now shifts to the item below.
Give the measured Mean : PE-A of G15 (antibody, human IgG1, lambda, L234A L235A, V domains shown, humanized SP34 IgG1, lambda) VH: EVQLVESGGGLVQPGGSLKLSCAASGFTFNTYAMNWVRQASGKGLEWVARIRSKYNNYATYYADSVKDRFTISRDDSQSTAYLQMNSLKTEDTAVYYCVRHGNFGNSYVSWFAYWGQGTLVTVSS VL: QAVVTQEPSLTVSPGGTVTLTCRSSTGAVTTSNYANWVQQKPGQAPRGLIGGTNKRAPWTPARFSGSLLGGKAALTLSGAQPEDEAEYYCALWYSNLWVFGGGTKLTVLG .
11600
